- TEST_TARGET: Neu5Ac(a2-6)Gal(b1-4)GlcNAc6S
- TEST_SUMMARY: glycan array binding signal (z-score within array); higher = stronger binding
- REPORTED_CONDITIONS: glycan notation: IUPAC condensed, linker removed
Only a selection was taken, and the strongest signals are over-represented in it overall.
READOUT_KIND: glycan array binding signal (z-score)
# print the numeric value only

Below: 2 binders and their reported glycan array binding signal (z-score).
BINDER	glycan array binding signal (z-score)
Epa7 (Candida glabrata), Q6DTM6_CANGB (protein) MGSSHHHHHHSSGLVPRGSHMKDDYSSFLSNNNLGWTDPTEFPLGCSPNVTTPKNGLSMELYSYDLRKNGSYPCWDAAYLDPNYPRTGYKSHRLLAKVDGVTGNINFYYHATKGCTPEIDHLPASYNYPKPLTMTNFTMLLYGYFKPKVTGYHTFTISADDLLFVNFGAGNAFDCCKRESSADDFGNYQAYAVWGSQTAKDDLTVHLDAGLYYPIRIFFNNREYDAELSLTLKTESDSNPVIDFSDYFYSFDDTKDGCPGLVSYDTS	-0.257
Epa2 (Candida glabrata) (protein) MGSSHHHHHHSSGLVPRGSHMASSKDPTSFPMGCSPQVLKTQPGLAVKLYSYGHPVPGCAYNTYQYPDFPRSGYKKERKLADITGVNGRIDIDLKPNDPCRVLSGNLPSNYNYQNTLTYTNFTMILYGYFQPKVTGYHTFNLEADDLLFMNLGAGNAFDCCRAESTLDNFGNYQSYSIWGTDKATADLTVFLVSGIYYPIRLFYVNRDNNAVLDFSFSTEFNKEIIHDFTSYFFSASDEEQCPGNI	-0.614

Documented glycan array binding signal (z-score) of Pwp2 (Candida glabrata) (protein) MGSSHHHHHHSSGLVPRGSHMASKNPVELNNVCTFPNDYGRIPGFTVLVGRLGLLISASDYKELLRYPGAFLIATQDTMTTSPNFELTGFPFFTGLYGLTVFPLDLLVELRGYFVPPNSGQYTFTLSDSDDAAIIFLGNPSAFPCGDLQNWPKPSEEDITVTDHLFPSRTLYLIEGVAYPMRIAYYNGIGAGRLNAAFIDPSGTRHTNWEGYIWQYDPCSTCTYS : -0.426

The origin of these recorded values is the supplement of paper PMC8728848.
